- Assay System: Renin (Homo sapiens, UniProt P00797)
- Sequence (P00797 whole entry): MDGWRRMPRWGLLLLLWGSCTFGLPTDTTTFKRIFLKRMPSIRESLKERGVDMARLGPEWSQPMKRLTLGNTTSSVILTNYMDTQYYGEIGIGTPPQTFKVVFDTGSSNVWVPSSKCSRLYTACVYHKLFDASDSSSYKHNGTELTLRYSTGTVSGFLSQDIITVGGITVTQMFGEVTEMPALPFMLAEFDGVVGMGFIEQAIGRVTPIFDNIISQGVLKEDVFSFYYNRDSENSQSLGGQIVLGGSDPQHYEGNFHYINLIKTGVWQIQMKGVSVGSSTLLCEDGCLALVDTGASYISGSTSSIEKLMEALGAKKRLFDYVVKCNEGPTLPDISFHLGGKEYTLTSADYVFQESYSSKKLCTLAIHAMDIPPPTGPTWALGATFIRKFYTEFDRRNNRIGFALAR
- Test Name: Component acylation rate constant by the compound against Renin was determined
Measurement Type: koff (s⁻¹)

Smiles Code	Assay System	Value
CC(C)C[C@H](O)[C@H](O)[C@H](CC1CCCCC1)NC(=O)[C@@H](CC(=O)N(CC(=O)N(C)CCC(=O)N1CCOCC1)[C@@H](C)c1ccccc1)Cc1csc(N)n1	Renin (Homo sapiens, UniProt P00797)	0.0013
CC(C)C[C@H](O)[C@H](O)[C@H](CC1CCCCC1)NC(=O)[C@@H](CC(=O)N(CC(=O)N(C)CCc1ccccn1)CC1CCCCCC1)Cc1csc(N)n1	Renin (Homo sapiens, UniProt P00797)	0.000234
CC(C)C[C@H](O)[C@H](O)[C@H](CC1CCCCC1)NC(=O)[C@@H](CC(=O)N(CC(=O)N(C)CCc1ccccn1)CC1CCCCC1)Cc1csc(N)n1	Renin (Homo sapiens, UniProt P00797)	0.00028
CC(C)C[C@H](O)[C@H](O)[C@H](CC1CCCCC1)NC(=O)[C@@H](CC(=O)N(CC(=O)N(C)CCN(C)C(=O)N1CCOCC1)[C@@H](C)c1ccccc1)Cc1csc(N)n1	Renin (Homo sapiens, UniProt P00797)	0.00133
CC(C)C[C@H](O)[C@H](O)[C@H](CC1CCCCC1)NC(=O)[C@@H](CC(=O)N(CC(=O)N(C)CCc1ccccn1)CC1(C)CCCCC1)Cc1csc(N)n1	Renin (Homo sapiens, UniProt P00797)	0.000569
CC(C)C[C@H](O)[C@H](O)[C@H](CC1CCCCC1)NC(=O)[C@@H](CC(=O)N(CC(=O)N(C)CCc1ccccn1)[C@@H](C)c1ccccc1)Cc1csc(N)n1	Renin (Homo sapiens, UniProt P00797)	0.00135
CC(C)C[C@H](O)[C@H](O)[C@H](CC1CCCCC1)NC(=O)[C@@H](CC(=O)N(CC(=O)N(C)CCN1CCOCC1)[C@@H](C)c1ccccc1)Cc1csc(N)n1	Renin (Homo sapiens, UniProt P00797)	0.00481
COC1(CN(CC(=O)N(C)CCc2ccccn2)C(=O)C[C@@H](Cc2csc(N)n2)C(=O)N[C@@H](CC2CCCCC2)[C@@H](O)[C@@H](O)CC(C)C)CCCCC1	Renin (Homo sapiens, UniProt P00797)	0.00175
